# STUDY_TARGET: JAK-2 enzyme (Homo sapiens)
# EXPERIMENTAL_PROTOCOL: JAK2 inhibition assay (radiometric 33P filter assay)
# Assay type: biochemical
# RECORDED_CONDITIONS: 15 μM poly(Glu)4Tyr, 12 μM ATP; read-out: JAK2 inhibition data (Ki)
pKi: −log10 of the molar value.
Please provide measured pKi for the entries that follow.

QUERY: Determine from records and report pKi for CC(=O)N1CCCN(c2cc(-n3nc(Nc4ccc(NC(=O)O[C@@H]5C[C@@H](C)CC[C@@H]5C(C)C)cc4)nc3N)ncn2)CC1 [Compound 98]
RESULT: 6.30 to 7.30

QUERY: Determine from records and report pKi for CC(=O)N1[C@H](C)CN(c2cc(-n3nc(Nc4ccc(NC(=O)OCC(C)(C)C)cc4)nc3N)ccn2)C[C@@H]1C [Compound 104]
RESULT: > 7.30

QUERY: Determine from records and report pKi for CC(=O)N1CCCN(c2cc(-n3nc(Nc4ccc(N5CCN(C(=O)C6CC6)CC5)cc4)nc3N)ncn2)CC1 [Compound 39]
RESULT: > 7.30

QUERY: Determine from records and report pKi for Nc1nc(Nc2ccc(N3CCOCC3)cc2)nn1-c1ccnc(N2CCCCCC2)c1 [Compound 19]
RESULT: > 7.30

QUERY: Determine from records and report pKi for CCOC(=O)N1CCN(c2ccc(Nc3nc(N)n(-c4ccnc(N5CCCN(C(=O)OC(C)C)CC5)c4)n3)cc2)CC1 [Compound 151]
RESULT: 6.30 to 7.30

QUERY: Determine from records and report pKi for CCCOC(=O)N1CCN(c2ccc(Nc3nc(N)n(-c4ccnc(N5CCCN(C(=O)OC)CC5)c4)n3)cc2)CC1 [Compound 158]
RESULT: 6.30 to 7.30

QUERY: Determine from records and report pKi for CCOC(=O)Nc1ccc(Nc2nc(N)n(-c3cc(N4CCCN(C(=O)CC#N)CC4)ncn3)n2)cc1 [Compound 137]
RESULT: > 7.30

QUERY: Determine from records and report pKi for CC(=O)N1CCCN(c2cc(-n3nc(Nc4ccc(N(C)C(=O)OC(C)C)cc4)nc3N)ncn2)CC1 [Compound 130]
RESULT: > 7.30

QUERY: Determine from records and report pKi for CC(=O)N1[C@H](C)CN(c2cc(-n3nc(Nc4ccc(NC(=O)Nc5ccc(C(F)(F)F)cc5)cc4)nc3N)ncn2)C[C@@H]1C [Compound 74]
RESULT: > 7.30

QUERY: Determine from records and report pKi for CC(=O)N1CCCN(c2cc(-n3nc(Nc4ccc(N5CCCCC5)cc4)nc3N)ncn2)CC1 [Compound 13]
RESULT: > 7.30

QUERY: Determine from records and report pKi for CCCCS(=O)(=O)N1CCCN(c2cc(-n3nc(Nc4ccc(N5CCN(C(=O)OCC)CC5)cc4)nc3N)ccn2)CC1 [Compound 147]
RESULT: 6.30 to 7.30

QUERY: Determine from records and report pKi for CC(=O)N1[C@H](C)CN(c2cc(-n3nc(Nc4ccc(NC(=O)NC(C)C)cc4)nc3N)ccn2)C[C@@H]1C [Compound 107]
RESULT: > 7.30

QUERY: Determine from records and report pKi for CCCOC(=O)N1CCN(c2ccc(Nc3nc(N)n(-c4cc(N5CCCN(C(C)=O)CC5)ncn4)n3)cc2)CC1 [Compound 47]
RESULT: > 7.30

QUERY: Determine from records and report pKi for CCCOC(=O)N(C)c1ccc(Nc2nc(N)n(-c3cc(N4C[C@@H](C)N(C(C)=O)[C@@H](C)C4)ncn3)n2)cc1 [Compound 118]
RESULT: > 7.30

QUERY: Determine from records and report pKi for CNc1ccc(Nc2nc(N)n(-c3cc(N4C[C@@H](C)N(C(C)=O)[C@@H](C)C4)ncn3)n2)cc1 [Compound 116]
RESULT: > 7.30

QUERY: Determine from records and report pKi for COC(=O)N(C)c1ccc(Nc2nc(N)n(-c3cc(N4CCCN(C(C)=O)CC4)ncn3)n2)cc1 [Compound 126]
RESULT: > 7.30

QUERY: Determine from records and report pKi for CCCNC(=O)Nc1ccc(Nc2nc(N)n(-c3cc(N4CCCN(C(C)=O)CC4)ncn3)n2)cc1 [Compound 85]
RESULT: > 7.30

QUERY: Determine from records and report pKi for CC(=O)CC(=O)N1CCCN(c2cc(-n3nc(Nc4ccc(N5CCOCC5)cc4)nc3N)ncn2)CC1 [Compound 6]
RESULT: > 7.30

----------
Please provide measured Ki for the entries that follow.
# STUDY_TARGET: JAK-2 enzyme (Homo sapiens, UniProt O60674)
# Sequence (O60674 whole entry, species assumed): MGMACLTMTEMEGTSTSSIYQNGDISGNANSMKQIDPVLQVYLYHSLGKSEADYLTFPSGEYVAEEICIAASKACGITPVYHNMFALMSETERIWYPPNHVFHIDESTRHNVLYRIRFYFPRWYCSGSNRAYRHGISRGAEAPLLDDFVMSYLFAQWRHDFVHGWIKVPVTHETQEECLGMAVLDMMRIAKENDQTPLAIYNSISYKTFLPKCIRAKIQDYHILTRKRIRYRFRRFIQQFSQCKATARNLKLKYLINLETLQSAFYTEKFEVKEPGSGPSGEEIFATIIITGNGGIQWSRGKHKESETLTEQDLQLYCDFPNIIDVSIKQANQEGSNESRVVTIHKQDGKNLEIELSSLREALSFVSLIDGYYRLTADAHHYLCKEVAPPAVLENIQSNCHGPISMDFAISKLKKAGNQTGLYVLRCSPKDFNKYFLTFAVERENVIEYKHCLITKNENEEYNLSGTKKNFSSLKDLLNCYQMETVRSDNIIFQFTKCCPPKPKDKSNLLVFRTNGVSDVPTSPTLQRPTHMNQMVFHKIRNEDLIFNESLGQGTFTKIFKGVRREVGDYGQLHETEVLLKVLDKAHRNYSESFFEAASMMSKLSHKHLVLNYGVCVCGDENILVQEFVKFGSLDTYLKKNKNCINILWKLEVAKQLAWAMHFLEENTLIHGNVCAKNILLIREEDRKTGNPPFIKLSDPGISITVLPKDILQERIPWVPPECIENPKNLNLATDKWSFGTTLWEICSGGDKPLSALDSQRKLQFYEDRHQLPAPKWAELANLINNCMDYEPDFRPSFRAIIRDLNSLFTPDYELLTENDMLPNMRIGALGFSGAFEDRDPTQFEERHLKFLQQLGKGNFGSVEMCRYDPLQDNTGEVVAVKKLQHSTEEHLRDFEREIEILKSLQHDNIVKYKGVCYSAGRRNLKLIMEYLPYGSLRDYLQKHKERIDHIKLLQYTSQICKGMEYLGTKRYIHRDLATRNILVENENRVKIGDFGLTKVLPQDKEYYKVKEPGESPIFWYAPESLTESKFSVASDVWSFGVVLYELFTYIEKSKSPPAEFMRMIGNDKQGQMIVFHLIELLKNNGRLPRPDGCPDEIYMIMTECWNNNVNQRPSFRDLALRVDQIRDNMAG
# EXPERIMENTAL_PROTOCOL: JAK2 inhibition assay (radiometric 33P filter assay)
# Type: biochemical
# RECORDED_CONDITIONS: 15 μM poly(Glu)4Tyr, 12 μM ATP; read-out: JAK2 inhibition data (Ki)

QUERY: Determine from records and report Ki for CCOC(=O)N(C)c1ccc(Nc2nc(N)n(-c3cc(N4CCCN(C(C)=O)CC4)ncn3)n2)cc1 [Compound 127]
RESULT: < 50 nM

QUERY: Determine from records and report Ki for CCOC(=O)CCNC(=O)Nc1ccc(Nc2nc(N)n(-c3cc(N4CCCN(C(C)=O)CC4)ncn3)n2)cc1 [Compound 89]
RESULT: < 50 nM

QUERY: Determine from records and report Ki for CC(C)OC(=O)N1CCN(c2ccc(Nc3nc(N)n(-c4ccnc(N5CCCN(S(C)(=O)=O)CC5)c4)n3)cc2)CC1 [Compound 168]
RESULT: 50 to 500 nM

QUERY: Determine from records and report Ki for CCOC(=O)N1CCN(c2ccc(Nc3nc(N)n(-c4ccnc(N5CCCN(C(=O)OC)CC5)c4)n3)cc2)CC1 [Compound 148]
RESULT: 50 to 500 nM

QUERY: Determine from records and report Ki for CC(=O)N1CCCN(c2cc(-n3nc(Nc4ccc(N5CCOCC5)cc4)nc3N)ncn2)CC1 [Compound 2]
RESULT: < 50 nM

QUERY: Determine from records and report Ki for CCOC(=O)N1CCN(c2ccc(Nc3nc(N)n(-c4cc(N5C[C@@H](C)N(C(C)=O)[C@@H](C)C5)ncn4)n3)cc2)CC1 [Compound 54]
RESULT: < 50 nM

QUERY: Determine from records and report Ki for CC(=O)N1[C@H](C)CN(c2cc(-n3nc(Nc4ccc(NC(=O)OCC(C)C)cc4)nc3N)ccn2)C[C@@H]1C [Compound 100]
RESULT: < 50 nM

QUERY: Determine from records and report Ki for CCCOC(=O)N1CCN(c2ccc(Nc3nc(N)n(-c4ccnc(N5C[C@@H](C)N(C(C)=O)[C@@H](C)C5)c4)n3)cc2)CC1 [Compound 139]
RESULT: < 50 nM

QUERY: Determine from records and report Ki for CC(=O)N1[C@H](C)CN(c2cc(-n3nc(Nc4ccc(NC(=O)CC(C)C)cc4)nc3N)ccn2)C[C@@H]1C [Compound 111]
RESULT: < 50 nM

QUERY: Determine from records and report Ki for CC(=O)N1[C@H](C)CN(c2cc(-n3nc(Nc4ccc(N5CCN(C(=O)OCC(C)(C)C)CC5)cc4)nc3N)ccn2)C[C@@H]1C [Compound 142]
RESULT: < 50 nM

QUERY: Determine from records and report Ki for CCOC(=O)N1CCN(c2ccc(Nc3nc(N)n(-c4cc(N5CCCN(C(=O)CC#N)CC5)ncn4)n3)cc2)CC1 [Compound 124]
RESULT: < 50 nM

QUERY: Determine from records and report Ki for CC(=O)N1[C@H](C)CN(c2cc(-n3nc(Nc4ccc(N)cc4)nc3N)ccn2)C[C@@H]1C [Compound 99]
RESULT: < 50 nM

QUERY: Determine from records and report Ki for CCOC(=O)N1CCN(c2ccc(Nc3nc(N)n(-c4ccnc(N5CCCN(C(=O)OCC)CC5)c4)n3)cc2)CC1 [Compound 149]
RESULT: 50 to 500 nM

QUERY: Determine from records and report Ki for CCCOC(=O)N1CCN(c2ccc(Nc3nc(N)n(-c4ccnc(N5CCCN(C(=O)CC#N)CC5)c4)n3)cc2)CC1 [Compound 140]
RESULT: < 50 nM

QUERY: Determine from records and report Ki for CCCOC(=O)N(C)c1ccc(Nc2nc(N)n(-c3cc(N4CCCN(C(C)=O)CC4)ncn3)n2)cc1 [Compound 129]
RESULT: < 50 nM

----------
# STUDY_TARGET: JAK-2 enzyme (Homo sapiens, UniProt O60674)
# EXPERIMENTAL_PROTOCOL: JAK2 inhibition assay (radiometric 33P filter assay)
# Format: biochemical
# RECORDED_CONDITIONS: 15 μM poly(Glu)4Tyr, 12 μM ATP; read-out: JAK2 inhibition data (Ki)
pKi: −log10 of the molar value.
Please provide measured pKi for the entries that follow.

QUERY: Determine from records and report pKi for COC1CCC(C(=O)Nc2ccc(Nc3nc(N)n(-c4cc(N5CCCN(C(C)=O)CC5)ncn4)n3)cc2)CC1 (centres unmarked)
RESULT: > 7.30

QUERY: Determine from records and report pKi for CC(=O)N1CCCN(c2cc(-n3nc(Nc4ccc(NC(=O)O[C@H]5C[C@H](C)CC[C@H]5C(C)C)cc4)nc3N)ncn2)CC1
RESULT: 6.30 to 7.30

QUERY: Determine from records and report pKi for CC(=O)N1[C@H](C)CN(c2cc(-n3nc(Nc4ccc(N(C)C(=O)OC(C)(C)C)cc4)nc3N)ncn2)C[C@@H]1C
RESULT: > 7.30

QUERY: Determine from records and report pKi for CCS(=O)(=O)N1CCCN(c2cc(-n3nc(Nc4ccc(N5CCN(C(=O)OC(C)C)CC5)cc4)nc3N)ccn2)CC1
RESULT: 6.30 to 7.30

QUERY: Determine from records and report pKi for CCCOC(=O)N1CCN(c2ccc(Nc3nc(N)n(-c4ccnc(N5CCCN(C(=O)OCC)CC5)c4)n3)cc2)CC1
RESULT: 6.30 to 7.30

QUERY: Determine from records and report pKi for CCCC(=O)N1CCN(c2ccc(Nc3nc(N)n(-c4cc(N5CCCN(C(C)=O)CC5)ncn4)n3)cc2)CC1
RESULT: > 7.30

QUERY: Determine from records and report pKi for COC(=O)Nc1ccc(Nc2nc(N)n(-c3cc(N4C[C@@H](C)N(C(C)=O)[C@@H](C)C4)ncn3)n2)cc1
RESULT: > 7.30

QUERY: Determine from records and report pKi for CC(=O)N1CCCN(c2cc(-n3nc(Nc4ccc(N(C)C)cc4)nc3N)ncn2)CC1
RESULT: > 7.30
